Target: purified recombinant endophilin A1-SH3 (ITC and NMR) (UniProt O35179 291-352)
Sequence (O35179 291-352): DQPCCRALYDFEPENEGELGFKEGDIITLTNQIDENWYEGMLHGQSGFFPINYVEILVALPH
Assay: ITC
pKd: −log10 of the molar value.
Outcome Measure: pKd

Q: Please supply the value of reported pKd for the item purified recombinant intersectin 1-SH3B (ITC and NMR) (domain or fragment) LQAQALYPWRAKKDNHLNFNKNDVITVLEQQDMWWFGEVQGQKGWFPKSYVKLIS
Result: ~4.52
